Tested on: Human alphaherpesvirus 2 (HSV-2)
Assay: Ratio of ID50/ID90 in HSV-2 infected cells
Format: ADME, organism-based
Conditions: human alphaherpesvirus 2, HSV-2 infected cells; read-out: Therapeutic index
# if value of selectivity ratio reaches 10, tag fulfilled; if it stays below, tag not fulfilled

O=c1[nH]c(=O)n([C@H]2C[C@H](O)[C@@H](CO)O2)cc1/C=C/Br :: fulfilled

Lookup: selectivity ratio >= 10 for Cc1cn([C@@H]2O[C@H](CO)[C@@H](O)[C@@H]2F)c(=O)nc1N ?
Found: fulfilled

Lookup: selectivity ratio >= 10 for O=c1[nH]c(=O)n([C@@H]2O[C@H](CO)[C@@H](O)[C@@H]2F)cc1/C=C/I ?
Found: fulfilled

Lookup: selectivity ratio >= 10 for C=Cc1cn([C@@H]2O[C@H](CO)[C@@H](O)[C@@H]2F)c(=O)[nH]c1=O ?
Found: fulfilled

Lookup: selectivity ratio >= 10 for C#Cc1cn([C@@H]2O[C@H](CO)[C@@H](O)[C@@H]2F)c(=O)nc1N ?
Found: not fulfilled

Lookup: selectivity ratio >= 10 for C#Cc1cn([C@@H]2O[C@H](CO)[C@@H](O)[C@@H]2F)c(=O)[nH]c1=O ?
Found: not fulfilled

Lookup: selectivity ratio >= 10 for C=Cc1cn([C@@H]2O[C@H](CO)[C@@H](O)[C@@H]2F)c(=O)nc1N ?
Found: fulfilled

Lookup: selectivity ratio >= 10 for O=c1[nH]c(=O)n([C@@H]2O[C@H](CO)[C@@H](O)[C@@H]2F)cc1/C=C/Cl ?
Found: fulfilled

Lookup: selectivity ratio >= 10 for C[Si](C)(C)C#Cc1cn([C@@H]2O[C@H](CO)[C@@H](O)[C@@H]2F)c(=O)[nH]c1=O ?
Found: not fulfilled

Lookup: selectivity ratio >= 10 for CCc1cn([C@@H]2O[C@H](CO)[C@@H](O)[C@@H]2F)c(=O)nc1N ?
Found: fulfilled

Lookup: selectivity ratio >= 10 for O=c1[nH]c(=O)n([C@@H]2O[C@H](CO)[C@@H](O)[C@@H]2F)cc1/C=C/Br ?
Found: fulfilled

---

System: Human alphaherpesvirus 2 (HSV-2)
Assay: Ratio of ID50/ID90 in HSV-2
Type: ADME, organism-based
Conditions: human alphaherpesvirus 2, in vivo
assay-readout: selectivity ratio

Lookup: Which value of selectivity ratio has been reported for Nc1nc(=O)n([C@@H]2O[C@H](CO)[C@@H](O)[C@@H]2F)cc1/C=C/I in the records?
Found: > 87

---

System: Human alphaherpesvirus 1 (HSV-1)
Test: Ratio of ID50/ID90 in HSV-1 infected cells
Assay type: ADME, organism-based
Settings: human alphaherpesvirus 1, HSV-1 infected cells; read-out: Therapeutic index
Binning rule for recorded selectivity ratio: band 1 (below 100), band 2 (100 to below 300), band 3 (300 or more)

Completed entries (count: 4):
O=c1[nH]c(=O)n([C@@H]2O[C@H](CO)[C@@H](O)[C@@H]2F)cc1/C=C/I :: band 3
CCc1cn([C@@H]2O[C@H](CO)[C@@H](O)[C@@H]2F)c(=O)nc1N :: band 2
C[Si](C)(C)C#Cc1cn([C@@H]2O[C@H](CO)[C@@H](O)[C@@H]2F)c(=O)[nH]c1=O :: band 1
C=Cc1cn([C@@H]2O[C@H](CO)[C@@H](O)[C@@H]2F)c(=O)[nH]c1=O :: band 2

Lookup: Please classify: C#Cc1cn([C@@H]2O[C@H](CO)[C@@H](O)[C@@H]2F)c(=O)nc1N
Found: band 1

Lookup: Please classify: C#Cc1cn([C@@H]2O[C@H](CO)[C@@H](O)[C@@H]2F)c(=O)[nH]c1=O
Found: band 1
